System: OVCAR-5 ovarian
PROTOCOL NOTES: NCI-60 one-dose screen, 48 h (100 = growth as untreated, 0 = no growth, -100 = all killed)
TEST PARAMETERS: 10 µM unless noted
Experimental: Growth inhibition of the OVCAR-5 human tumor cell line is measured as a screen for anti-cancer activity. Cells are grown in 96 well plates and exposed to the test compound for 48 hours. Compounds are tested at a single concentration, which is 10^-5 M for most compounds. The reported endpoint is percent growth (GI% or GIPRCNT), where numbers from 0 - 100% represent growth inhibition, and numbers from -100% - 0 represent cell death. For example, a value of 40 represents 60% growth inhibition. […]
This is part of a sample that, as a whole, favours compounds with a hit. Of some 83,000 tested, about 20% had one in any assay.
MEASURED ENDPOINT: growth (%)
Please state the figure in %; there is no need to write the unit.

Below: 5 molecules and their reported growth.
COP(=S)(OC)Oc1ccc(SC)c(C)c1 ... 93.2
COC(=O)C[Se]C(=O)c1ccccc1OC(C)=O ... 38.6
CNC(=O)Oc1cccc(OC)c1 ... 113
CC(=O)OC1CCC2(C)C(=CCC3C4CC(CN5CC5)C(=O)C4(C)CCC32)C1 (configuration not stated) ... 97.7
OC1(c2ccccc2F)c2ccccc2C2=NCCN21 (configuration not stated) ... 98.6

Asked: Give me measured growth, please, for this molecule: O=[N+]([O-])c1ccc(F)c([N+](=O)[O-])c1F
Given back: 107

Asked: Give me measured growth, please, for this molecule: c1ccc(-c2ccc3ccccc3[o+]2)cc1
Given back: 103

====

Measured growth of individual entries
System: NCI-H322M lung
PROTOCOL NOTES: NCI-60 one-dose screen, 48 h (100 = growth as untreated, 0 = no growth, -100 = all killed)
TEST PARAMETERS: 10 µM unless noted
This is part of a sample that, as a whole, favours compounds with a hit. Of some 83,000 tested, about 20% had one in any assay. Activity calls are given as the source filed them. The calls were made as follows: active = growth percent below 10; inactive = the rest.

Below: 8 compounds and their reported growth.
O=C(CCCN1CCC2(CC1)C(=O)NCN2c1ccc(F)cc1)c1ccc(F)cc1 ... 90% (inactive)
CCCCn1cc(C(=O)/C(C#N)=C/c2cc3ccccc3nc2Cl)c2cc(OC)ccc21 ... 98% (inactive)
CCN(CC)CCOc1c(C(C)C)cccc1C(C)C ... 88.3% (inactive)
O=C(CF)N(O)c1ccc(/C=C/c2ccccc2)cc1 ... 71.4% (inactive)
c1ccc([As]=[As]c2ccccc2)cc1 (stereo not given) ... -40.5% (active)
Cc1ccc(C(=O)C2CN(C)CCC2(O)c2ccc(C)cc2)cc1 (stereo not given) ... 113% (inactive)
CC[C@H](C)[C@H](NC(=O)Nc1ccccc1)C(=O)N(C)[C@H](C[C@@H](OC(C)=O)c1nc(C(=O)N[C@@H](Cc2ccccc2)C[C@H](C)C(=O)OC)cs1)C(C)C ... 48.4% (inactive)
C[CH2][Pb]([CH2]C)([CH2]C)[O]C(=O)c1ccc(N)cc1 ... 79.6% (inactive)

Asked: Give me measured growth, please, for this compound: CC[C@]12C=CCN3CC[C@@]4(c5ccc(OC)cc5N(C)[C@H]4[C@@](O)(C(=O)OC)[C@@H]1OC(=O)CCCN1CCN(CCCC(=O)O[C@@H]4[C@]5(CC)C=CCN6CC[C@@]7(c8ccc(OC)cc8N(C)[C@H]7[C@@]4(O)C(=O)OC)[C@@H]65)CC1)[C@@H]32
Given back: -88.5% (active)

Asked: Give me measured growth, please, for this compound: CCCCCCCC(=O)OCC/C=C/C1OC1C1OC(=O)/C=C\C=C\c2nc(oc2C)/C=C(/C)CCC2OC2C1OC(=O)NC(C)=O (stereo not given)
Given back: 15.6% (inactive)
